# test-name: Peptide binding to POPG LUVs studied by ITC
# run-parameters: POPG LUVs into peptide, PBS, one site model, once or twice
measured-property: ΔH (kcal/mol)

> print(dat)
                        residues  measured.property       uom  endpoint.result
 1             RWRWRRRRR [nR7W2]                 ΔH  kcal/mol            -0.81
 2        RRRRRRRRR [Peptide R9]                 ΔH  kcal/mol            -0.60
 3             RRRWRRWRR [aR7W2]                 ΔH  kcal/mol            -0.84
 4             RRWWRRWWR [aR5W4]                 ΔH  kcal/mol            -2.53
 5    RRRRRRRRW [Peptide R8W1-2]                 ΔH  kcal/mol            -0.79
 6    RRRRWRRRR [Peptide R8W1-1]                 ΔH  kcal/mol            -0.72
 7             RRWWRRWRR [aR6W3]                 ΔH  kcal/mol            -1.39
 8             RRWRRRRWW [nR6W3]                 ΔH  kcal/mol            -1.27
 9             RWWWWRRRR [nR5W4]                 ΔH  kcal/mol            -2.10
10  RRDWDWRRDWRR [Peptide R6DW3]                 ΔH  kcal/mol            -0.74
